System: Hepatocyte
assay text: Hepatoprotective activity against carbon tetrachloride-induced hepatotoxicity in fasted Sprague-Dawley rat hepatocytes assessed as serum glutamic oxaloacetic transaminase release at 0.01 mg/ml administered before 10 mins of carbon tetrachloride challenge measured after 30 mins
Assay type: functional
measured parameter: Activity (%)

{"columns": ["smiles data", "experimental result"],
 "data": [
  ["Oc1cc(O)c2c(c1)O[C@H](c1ccc(O)c(O)c1)[C@@H](O)C2", 16.8],
  ["O=C(O)/C=C/c1ccc(O)c(O)c1", 21],
  ["O=c1cc(-c2ccc(O)c(O)c2)oc2cc(O[C@@H]3O[C@H](CO)[C@@H](O)[C@H](O)[C@H]3O)cc(O)c12", 21.9],
  ["O=C(/C=C/c1ccc(O)c(O)c1)O[C@@H]1C[C@](O)(C(=O)O)C[C@@H](O)[C@H]1O", 19.5],
  ["O=C(O)[C@]1(O)C[C@@H](O)[C@@H](O)[C@H](O)C1", 18.4],
  ["O=C(/C=C/c1ccc(O)c(O)c1)O[C@@H]1C[C@@](OC(=O)/C=C/c2ccc(O)c(O)c2)(C(=O)O)C[C@@H](O)[C@@H]1O", 17.6]
]}

====

Test system: Hepatocyte
assay text: Hepatoprotective activity against carbon tetrachloride-induced hepatotoxicity in fasted Sprague-Dawley rat hepatocytes assessed as serum glutamic oxaloacetic transaminase release at 0.1 mg/ml administered before 10 mins of carbon tetrachloride challenge measured after 30 mins
Format: functional

{"columns": ["smiles data", "value unit", "Activity"],
 "data": [
  ["O=C(O)[C@]1(O)C[C@@H](O)[C@@H](O)[C@H](O)C1", "%", 21.9],
  ["O=C(/C=C/c1ccc(O)c(O)c1)O[C@@H]1C[C@](O)(C(=O)O)C[C@@H](O)[C@H]1O", "%", 19.4],
  ["O=C(O)/C=C/c1ccc(O)c(O)c1", "%", 19.9],
  ["Oc1cc(O)c2c(c1)O[C@H](c1ccc(O)c(O)c1)[C@@H](O)C2", "%", 18.3],
  ["O=c1cc(-c2ccc(O)c(O)c2)oc2cc(O[C@@H]3O[C@H](CO)[C@@H](O)[C@H](O)[C@H]3O)cc(O)c12", "%", 20.4],
  ["O=C(/C=C/c1ccc(O)c(O)c1)O[C@@H]1C[C@@](OC(=O)/C=C/c2ccc(O)c(O)c2)(C(=O)O)C[C@@H](O)[C@@H]1O", "%", 17.9]
]}

====

Here, each record is paired with measured Activity data.
Tested on: Hepatocyte
assay text: Hepatoprotective activity against carbon tetrachloride-induced hepatotoxicity in fasted Sprague-Dawley rat hepatocytes assessed as serum glutamic pyruvate transaminase release at 0.1 mg/ml administered before 10 mins of carbon tetrachloride challenge measured after 30 mins
Type: functional

{"columns": ["smiles data", "Activity"],
 "data": [
  ["O=C(/C=C/c1ccc(O)c(O)c1)O[C@@H]1C[C@](O)(C(=O)O)C[C@@H](O)[C@H]1O", "15.3%"],
  ["O=C(/C=C/c1ccc(O)c(O)c1)O[C@@H]1C[C@@](OC(=O)/C=C/c2ccc(O)c(O)c2)(C(=O)O)C[C@@H](O)[C@@H]1O", "16.8%"],
  ["O=c1cc(-c2ccc(O)c(O)c2)oc2cc(O[C@@H]3O[C@H](CO)[C@@H](O)[C@H](O)[C@H]3O)cc(O)c12", "14.9%"],
  ["O=C(O)[C@]1(O)C[C@@H](O)[C@@H](O)[C@H](O)C1", "18.1%"],
  ["O=C(O)/C=C/c1ccc(O)c(O)c1", "17.5%"],
  ["Oc1cc(O)c2c(c1)O[C@H](c1ccc(O)c(O)c1)[C@@H](O)C2", "14.3%"]
]}

====

Test system: Hepatocyte
assay text: Hepatoprotective activity against carbon tetrachloride-induced hepatotoxicity in fasted Sprague-Dawley rat hepatocytes assessed as serum glutamic pyruvate transaminase release at 3 mg/ml administered before 10 mins of carbon tetrachloride challenge measured after 30 mins
Assay type: functional
Consider the cut-off 20%. If the recorded Activity is strictly smaller, the label is rule met; if not, the label is rule not met.

{"columns": ["compound", "discrete label"],
 "data": [
  ["O=C(O)[C@]1(O)C[C@@H](O)[C@@H](O)[C@H](O)C1 [QUINIC ACID]", "rule met"],
  ["O=C(/C=C/c1ccc(O)c(O)c1)O[C@@H]1C[C@](O)(C(=O)O)C[C@@H](O)[C@H]1O [CHLOROGENIC ACID]", "rule met"],
  ["O=C(O)/C=C/c1ccc(O)c(O)c1 [CAFFEIC ACID]", "rule met"],
  ["O=c1cc(-c2ccc(O)c(O)c2)oc2cc(O[C@@H]3O[C@H](CO)[C@@H](O)[C@H](O)[C@H]3O)cc(O)c12 [GALUTEOLIN]", "rule not met"],
  ["O=C(/C=C/c1ccc(O)c(O)c1)O[C@@H]1C[C@@](OC(=O)/C=C/c2ccc(O)c(O)c2)(C(=O)O)C[C@@H](O)[C@@H]1O [CYNARIN]", "rule met"]
]}

====

Test system: Hepatocyte
assay text: Hepatoprotective activity against carbon tetrachloride-induced hepatotoxicity in fasted Sprague-Dawley rat hepatocytes assessed as serum glutamic oxaloacetic transaminase release at 3 mg/ml administered before 10 mins of carbon tetrachloride challenge measured after 30 mins
Assay type: functional
Here, each record is paired with measured Activity data.

{"columns": ["compound", "Activity [%]"],
 "data": [
  ["O=C(O)/C=C/c1ccc(O)c(O)c1 [CAFFEIC ACID]", 22.1],
  ["O=c1cc(-c2ccc(O)c(O)c2)oc2cc(O[C@@H]3O[C@H](CO)[C@@H](O)[C@H](O)[C@H]3O)cc(O)c12 [GALUTEOLIN]", 22.8],
  ["O=C(/C=C/c1ccc(O)c(O)c1)O[C@@H]1C[C@@](OC(=O)/C=C/c2ccc(O)c(O)c2)(C(=O)O)C[C@@H](O)[C@@H]1O [CYNARIN]", 16.5],
  ["O=C(/C=C/c1ccc(O)c(O)c1)O[C@@H]1C[C@](O)(C(=O)O)C[C@@H](O)[C@H]1O [CHLOROGENIC ACID]", 20.6],
  ["O=C(O)[C@]1(O)C[C@@H](O)[C@@H](O)[C@H](O)C1 [QUINIC ACID]", 21.2],
  ["Oc1cc(O)c2c(c1)O[C@H](c1ccc(O)c(O)c1)[C@@H](O)C2 [CIANIDANOL]", 22.4]
]}

====

Here, each record is paired with measured Activity data.
Test system: Hepatocyte
assay text: Hepatoprotective activity against carbon tetrachloride-induced hepatotoxicity in fasted Sprague-Dawley rat hepatocytes assessed as serum glutamic pyruvate transaminase release at 0.01 mg/ml administered before 10 mins of carbon tetrachloride challenge measured after 30 mins
Type: functional

{"columns": ["smiles data", "Activity, %"],
 "data": [
  ["Oc1cc(O)c2c(c1)O[C@H](c1ccc(O)c(O)c1)[C@@H](O)C2", 13.5],
  ["O=C(O)/C=C/c1ccc(O)c(O)c1", 19],
  ["O=C(O)[C@]1(O)C[C@@H](O)[C@@H](O)[C@H](O)C1", 15.5],
  ["O=C(/C=C/c1ccc(O)c(O)c1)O[C@@H]1C[C@@](OC(=O)/C=C/c2ccc(O)c(O)c2)(C(=O)O)C[C@@H](O)[C@@H]1O", 16.3],
  ["O=C(/C=C/c1ccc(O)c(O)c1)O[C@@H]1C[C@](O)(C(=O)O)C[C@@H](O)[C@H]1O", 16.7],
  ["O=c1cc(-c2ccc(O)c(O)c2)oc2cc(O[C@@H]3O[C@H](CO)[C@@H](O)[C@H](O)[C@H]3O)cc(O)c12", 15.9]
]}
